Assay: Rodent pharmacokinetic study
Assay type: in vivo, Male Wistar rats
Conditions: male, Wistar; rat, oral 3 mg/kg, plasma
Method: Rodent Pharmacokinetic Study Male Wistar rats (260±50 grams) were used as experimental animals. Animals were housed individually in polypropylene cage. […] At pre-determined point, blood was collected through jugular vein and replenished with an equivalent volume of normal saline. […] The concentrations of the test compounds were quantified in plasma by qualified LC-MS/MS method using suitable extraction technique. The test compounds were quantified in the calibration range around 1-1000 ng/mL in plasma. […]
# Tmax per entry
Measurement label: Tmax (h)

Cc1c(Cc2ccccc2)cc(C(=O)N[C@H]2CCCC[C@@H]2O)c2ncccc12
0.5
Cc1c(Cc2ccc(-c3cnn(C)c3)c(F)c2F)cc(C(=O)N[C@H]2CCCC[C@@H]2O)c2ncccc12
2

---

Cmax: recorded values
test: Rodent pharmacokinetic study; assay type: in vivo, Male Wistar rats; conditions: male, Wistar; rat, oral 3 mg/kg, plasma
Measurement label: Cmax

Cc1c(Cc2ccnc(Cl)c2)cc(C(=O)N[C@H]2CCCC[C@@H]2O)c2ncccc12
150 ng/mL
Cc1c(Cc2ccc(-c3cnn(C)c3)cc2F)cc(C(=O)N[C@H]2CCCC[C@@H]2O)c2ncccc12
9690 ng/mL
Cc1c(Cc2ccccc2)cc(C(=O)N[C@H]2CCCC[C@@H]2O)c2ncccc12
70 ng/mL
Cc1c(Cc2ccc(-c3cnn(C)c3)cc2)cc(C(=O)N[C@H]2CCCC[C@@H]2O)c2ncccc12
1540 ng/mL
Cc1c(Cc2cccc(F)c2F)cc(C(=O)N[C@H]2CCCC[C@@H]2O)c2ncccc12
48 ng/mL
Cc1c(Cc2ccc(-n3cccn3)cc2)cc(C(=O)N[C@H]2CCCC[C@@H]2O)c2c1NCCO2
288 ng/mL
Cc1c(Cc2ccc(Cl)nc2)cc(C(=O)N[C@H]2CCCC[C@@H]2O)c2ncccc12
582 ng/mL
Cc1c(Cc2ccc(-c3cnn(C)c3)c(F)c2F)cc(C(=O)N[C@H]2CCCC[C@@H]2O)c2ncccc12
2330 ng/mL

---

assay: Rodent pharmacokinetic study; format: in vivo, Male Wistar rats; settings: male, Wistar, plasma; rat, oral 3 mg/kg vs i.v. 1 mg/kg; read-out: F (bioavailability)
Think of 40% as a floor: if bioavailability stands on it or above, it is fulfilled; beneath it, not fulfilled.

Cc1c(Cc2ccnc(Cl)c2)cc(C(=O)N[C@H]2CCCC[C@@H]2O)c2ncccc12
not fulfilled
Cc1c(Cc2ccccc2)cc(C(=O)N[C@H]2CCCC[C@@H]2O)c2ncccc12
not fulfilled
Cc1c(Cc2ccc(-n3cccn3)cc2)cc(C(=O)N[C@H]2CCCC[C@@H]2O)c2c1NCCO2
not fulfilled
Cc1c(Cc2ccc(-c3cnn(C)c3)c(F)c2F)cc(C(=O)N[C@H]2CCCC[C@@H]2O)c2ncccc12
fulfilled
Cc1c(Cc2ccc(-c3cnn(C)c3)cc2F)cc(C(=O)N[C@H]2CCCC[C@@H]2O)c2ncccc12
fulfilled
Cc1c(Cc2ccc(Cl)nc2)cc(C(=O)N[C@H]2CCCC[C@@H]2O)c2ncccc12
fulfilled
Cc1c(Cc2cccc(F)c2F)cc(C(=O)N[C@H]2CCCC[C@@H]2O)c2ncccc12
not fulfilled

---

assay: Rodent pharmacokinetic study; type: in vivo, Male Wistar rats; conditions: male, Wistar, plasma, iv; rat, i.v. 1 mg/kg
Measurement label: clearance (mL/min/kg)

Cc1c(Cc2ccc(Cl)nc2)cc(C(=O)N[C@H]2CCCC[C@@H]2O)c2ncccc12
25
Cc1c(Cc2ccc(-c3cnn(C)c3)cc2F)cc(C(=O)N[C@H]2CCCC[C@@H]2O)c2ncccc12
1.3
Cc1c(Cc2ccccc2)cc(C(=O)N[C@H]2CCCC[C@@H]2O)c2ncccc12
48
Cc1c(Cc2ccc(-n3cccn3)cc2)cc(C(=O)N[C@H]2CCCC[C@@H]2O)c2c1NCCO2
26

---

assay: Rodent pharmacokinetic study; type: in vivo, Male Wistar rats; conditions: male, Wistar, plasma, iv; rat, i.v. 1 mg/kg
Listed here are molecules together with their documented clearance.
Measurement label: clearance (mL/min/kg)

Cc1c(Cc2ccc(-c3cnn(C)c3)cc2)cc(C(=O)N[C@H]2CCCC[C@@H]2O)c2ncccc12
2.5
Cc1c(Cc2ccc(-c3cnn(C)c3)c(F)c2F)cc(C(=O)N[C@H]2CCCC[C@@H]2O)c2ncccc12
2.7
Cc1c(Cc2ccnc(Cl)c2)cc(C(=O)N[C@H]2CCCC[C@@H]2O)c2ncccc12
34
Cc1c(Cc2cccc(F)c2F)cc(C(=O)N[C@H]2CCCC[C@@H]2O)c2ncccc12
45

---

biological target: recombinant human Muscarinic M1 receptor (Homo sapiens); test: Allosteric potency EC50 for Muscarinic M1 receptor, CHO pCRE-Luc reporter cell-based assay with EC20 of acetylcholine; conditions: CHO cells, human M1, luciferase reporter, in presence of EC20 of acetylcholine, 4 h
Measurement label: EC50 (nM)

Cc1c(Cc2ccc(-c3cnn(C)c3)c(F)c2F)cc(C(=O)N[C@@H]2CCCC[C@H]2O)c2c1ncn2C
1460
Cc1c(Cc2ccc(-c3cscn3)cc2)cc(C(=O)N[C@H]2CCOC[C@@H]2O)c2ncccc12
249
Cc1c(Cc2ccc(-n3cccn3)cc2)cc(C(=O)N[C@H]2CCCC[C@@H]2O)c2ncccc12
157
Cc1c(Cc2ccc(-n3cccn3)cc2)cc(C(=O)N[C@H]2CCCC[C@@H]2O)c2nc[nH]c12
357

---

Measured Kp at 1 h accompanies every entry in the list below.
test: Rodent brain penetration study; format: in vivo, Male Wistar rats; details: male, Wistar, brain and plasma, po; rat, 3 mg/kg, p.o. @ 1.0 hr, brain-plasma ratio; read-out: Single dose Rat Brain Penetration (Cb/Cp)
Measurement label: Kp at 1 h

Cc1c(Cc2ccccc2)cc(C(=O)N[C@H]2CCCC[C@@H]2O)c2ncccc12
1.27
Cc1c(Cc2ccc(Cl)nc2)cc(C(=O)N[C@H]2CCCC[C@@H]2O)c2ncccc12
0.26
Cc1c(Cc2ccc(-n3cccn3)cc2)cc(C(=O)N[C@H]2CCCC[C@@H]2O)c2c1NCCO2
0.32

---

Target: recombinant human Muscarinic M1 receptor (Homo sapiens, UniProt P11229)
Sequence (P11229 whole entry): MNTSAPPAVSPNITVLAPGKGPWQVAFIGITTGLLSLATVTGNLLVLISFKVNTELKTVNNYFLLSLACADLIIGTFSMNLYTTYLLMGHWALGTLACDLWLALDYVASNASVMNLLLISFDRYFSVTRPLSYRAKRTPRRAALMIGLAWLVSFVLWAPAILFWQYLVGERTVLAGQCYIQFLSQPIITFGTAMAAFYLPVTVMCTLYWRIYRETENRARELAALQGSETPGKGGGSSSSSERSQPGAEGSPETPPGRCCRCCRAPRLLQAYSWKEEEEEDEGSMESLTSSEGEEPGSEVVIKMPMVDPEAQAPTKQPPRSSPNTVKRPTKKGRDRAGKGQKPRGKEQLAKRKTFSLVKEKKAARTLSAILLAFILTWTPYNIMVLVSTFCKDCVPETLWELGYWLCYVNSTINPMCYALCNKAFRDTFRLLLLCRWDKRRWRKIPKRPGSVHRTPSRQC
Experiment: Allosteric potency EC50 for Muscarinic M1 receptor, CHO pCRE-Luc reporter cell-based assay with EC20 of acetylcholine
Settings: CHO cells, human M1, luciferase reporter, in presence of EC20 of acetylcholine, 4 h
Procedure: Determination of allosteric potency EC50 values for Muscarinic M1 receptor: A stable CHO cell line expressing recombinant human Muscarinic M1 receptor and pCRE-Luc reporter system was used for cell-based assay. The assay offers a non-radioactive based approach to determine binding of a compound to GPCRs. In this specific assay, the level of intracellular cyclic AMP which is modulated by activation or inhibition of the receptor is measured. […]
pEC50: −log10 of the molar value.
Measurement label: pEC50

Cc1nc2c(C(=O)N[C@H]3CCCC[C@@H]3O)cc(Cc3ccc(-c4cscn4)cc3)c(C)c2[nH]1
5.82
Cc1c(Cc2ccc(-c3cnn(C)c3)cc2F)cc(C(=O)N[C@@H]2CCCC[C@H]2O)c2nc[nH]c12
6.82
Cc1c(Cc2ccc(-c3cnn(C)c3)cc2)cc(C(=O)N[C@@H]2CCCC[C@H]2O)c2c1ncn2C
5.00
Cc1c(Cc2ccccc2)cc(C(=O)N[C@H]2CCCC[C@@H]2O)c2ncccc12
6.26
Cn1cc(-c2ccc(Cc3cc(C(=O)N[C@H]4CCCC[C@@H]4O)c4nccn4c3)c(F)c2F)cn1
5.98
Cc1c(Cc2ccnc(F)c2)cc(C(=O)N[C@H]2CCCC[C@@H]2O)c2ncccc12
6.02
Cc1c(Cc2cccc(F)c2F)cc(C(=O)N[C@@H]2CCCC[C@H]2O)c2nc[nH]c12
5.44

The reported numbers originate from patent US11278530B2.
